Hey, just so you know, these numbers are from patent US20220177604A1.

Biological target: human immunoglobulin E (hIgE) (human) (UniProt P01854)
Sequence (P01854 whole entry): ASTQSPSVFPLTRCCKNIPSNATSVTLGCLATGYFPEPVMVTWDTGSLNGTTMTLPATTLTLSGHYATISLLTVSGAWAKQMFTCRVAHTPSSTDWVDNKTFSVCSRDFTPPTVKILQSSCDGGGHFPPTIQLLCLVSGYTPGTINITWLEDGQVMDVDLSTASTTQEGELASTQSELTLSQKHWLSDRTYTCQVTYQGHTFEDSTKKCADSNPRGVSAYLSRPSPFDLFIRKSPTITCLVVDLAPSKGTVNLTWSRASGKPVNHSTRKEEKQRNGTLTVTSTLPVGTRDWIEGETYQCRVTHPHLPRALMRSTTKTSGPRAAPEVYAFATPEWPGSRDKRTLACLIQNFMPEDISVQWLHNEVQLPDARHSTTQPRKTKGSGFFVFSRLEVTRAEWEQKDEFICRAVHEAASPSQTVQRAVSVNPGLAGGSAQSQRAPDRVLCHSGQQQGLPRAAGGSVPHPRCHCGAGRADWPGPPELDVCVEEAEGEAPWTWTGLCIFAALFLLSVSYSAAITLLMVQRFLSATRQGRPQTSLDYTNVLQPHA
Assay: competition ELISA, hIgE to coated hFcεRIα, pH 6
parameterMeasured: IC50 (µg/mL)
Reply numerically in µg/mL, unit not repeated.

q: Fill in IC50 for record 18B9His-hIgG1-ABDEG (antibody, V domains shown) VH: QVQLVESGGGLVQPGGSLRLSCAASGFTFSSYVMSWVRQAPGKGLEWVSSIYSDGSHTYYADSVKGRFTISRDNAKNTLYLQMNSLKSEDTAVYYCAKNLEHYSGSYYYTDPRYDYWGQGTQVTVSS VL: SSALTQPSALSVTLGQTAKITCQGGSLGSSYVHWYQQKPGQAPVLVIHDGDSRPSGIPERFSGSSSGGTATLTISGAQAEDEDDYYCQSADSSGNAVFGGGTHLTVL
a: 2.55

q: Name the recorded IC50 of the binder listed here: 13E4-hIgG1-ABDEG (antibody, V domains shown) VH: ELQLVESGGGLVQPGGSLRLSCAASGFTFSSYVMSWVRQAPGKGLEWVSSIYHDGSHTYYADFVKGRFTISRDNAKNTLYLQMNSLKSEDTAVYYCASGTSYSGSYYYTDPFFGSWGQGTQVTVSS VL: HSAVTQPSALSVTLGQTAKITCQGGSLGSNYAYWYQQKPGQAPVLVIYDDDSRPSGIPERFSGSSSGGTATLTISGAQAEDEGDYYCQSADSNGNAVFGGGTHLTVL
a: 0.0106

q: Please report IC50 for the following binder: 18E2His2-hIgG1-ABDEG (antibody, V domains shown) VH: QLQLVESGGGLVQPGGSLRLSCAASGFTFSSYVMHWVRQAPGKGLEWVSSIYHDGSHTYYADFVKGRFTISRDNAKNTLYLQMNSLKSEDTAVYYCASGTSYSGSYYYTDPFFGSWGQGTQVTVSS VL: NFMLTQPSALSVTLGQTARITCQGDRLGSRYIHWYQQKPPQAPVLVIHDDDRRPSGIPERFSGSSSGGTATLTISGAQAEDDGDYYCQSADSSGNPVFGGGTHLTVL
a: 26.6
